Target: T1, cyno TfR extracellular domain (analogous construct to human TfR ecd) (cynomolgus monkey, UniProt Q5RDH6 87-760 (Pongo abelii entry))
T1 construct: also called cynoTfR ecd
T1 chain: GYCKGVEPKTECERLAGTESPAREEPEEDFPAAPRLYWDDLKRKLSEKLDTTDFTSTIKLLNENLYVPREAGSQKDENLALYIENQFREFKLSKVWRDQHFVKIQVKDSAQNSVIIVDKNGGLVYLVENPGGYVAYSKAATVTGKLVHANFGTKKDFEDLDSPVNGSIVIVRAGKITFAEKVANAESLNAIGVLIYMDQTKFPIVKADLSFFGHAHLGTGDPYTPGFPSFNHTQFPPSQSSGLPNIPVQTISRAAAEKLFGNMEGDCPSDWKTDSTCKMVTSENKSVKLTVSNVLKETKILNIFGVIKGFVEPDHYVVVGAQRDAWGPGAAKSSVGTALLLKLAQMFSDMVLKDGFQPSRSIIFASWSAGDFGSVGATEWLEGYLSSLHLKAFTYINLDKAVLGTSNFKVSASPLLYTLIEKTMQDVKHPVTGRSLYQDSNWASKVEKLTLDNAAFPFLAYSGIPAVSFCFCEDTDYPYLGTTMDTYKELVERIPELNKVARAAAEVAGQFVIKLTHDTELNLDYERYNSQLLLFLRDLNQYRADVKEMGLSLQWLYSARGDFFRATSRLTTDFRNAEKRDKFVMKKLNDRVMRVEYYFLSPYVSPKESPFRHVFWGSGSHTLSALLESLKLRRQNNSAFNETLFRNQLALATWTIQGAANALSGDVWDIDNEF
Assay: SPR, IgG;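 note: His-tagged TfR captured via immobilized anti-His antibody on a CM5 chip, antibody injected in 3-fold dilution series by single cycle kinetics, 1:1 Langmuir or steady-state fit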
quantity: pKd
Answer as the number alone; pKd is minus log10 of concentration in mol/L.

Worked examples follow.
{"binder": "hu15G11.v1 (antibody, V domains shown, IgG; HC 48 M, 67 V, 69 I, 71 R, 73 T) VH: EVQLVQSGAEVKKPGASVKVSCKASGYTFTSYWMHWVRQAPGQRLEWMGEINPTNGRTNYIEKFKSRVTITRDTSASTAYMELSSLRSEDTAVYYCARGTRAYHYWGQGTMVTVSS VL: DIQMTQSPSSLSASVGDRVTITCRASDNLYSNLAWYQQKPGKAPKLLLYDATNLADGVPSRFSGSGSGTDYTLTISSLQPEDFATYYCQHFWGTPLTFGQGTKVEIK", "quantity": "pKd", "test result": 7.99}
{"binder": "hu15G11.v4 (antibody, V domains shown, IgG; HC 48 M, 67 V, 69 I, 71 V, 73 T) VH: EVQLVQSGAEVKKPGASVKVSCKASGYTFTSYWMHWVRQAPGQRLEWMGEINPTNGRTNYIEKFKSRVTITVDTSASTAYMELSSLRSEDTAVYYCARGTRAYHYWGQGTMVTVSS VL: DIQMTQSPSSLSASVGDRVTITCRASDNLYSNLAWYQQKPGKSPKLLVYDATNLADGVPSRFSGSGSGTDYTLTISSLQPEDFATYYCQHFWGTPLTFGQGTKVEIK", "quantity": "pKd", "test result": 8.15}
{"binder": "hu7A4.v3 (antibody, V domains shown, IgG) VH: EVQLVQSGAEVKKPGASVKVSCKASGYTFTDYAMHWVRQAPGQGLEWMGGISTYFGRTNYNQKFKGRVTMTVDTSISTAYMELSRLRSDDTAVYYCARGLSGNYVMDYWGQGTTVTVSS VL: DIVMTQSPDSLAVSLGERATINCRASESVDSYGNSFMHWYQQKPGQPPKLLIYRASNLESGVPDRFSGSGSGTDFTLTISSLQAEDVAVYYCQQSNEGPPTFGQGTKLEIK", "quantity": "pKd", "test result": 8.54}
{"binder": "hu15G11.v3 (antibody, V domains shown, IgG; HC 48 M, 67 V, 69 I, 71 R, 73 T) VH: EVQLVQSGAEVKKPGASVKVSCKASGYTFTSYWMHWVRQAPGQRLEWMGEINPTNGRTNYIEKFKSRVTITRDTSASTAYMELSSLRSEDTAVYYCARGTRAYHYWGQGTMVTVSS VL: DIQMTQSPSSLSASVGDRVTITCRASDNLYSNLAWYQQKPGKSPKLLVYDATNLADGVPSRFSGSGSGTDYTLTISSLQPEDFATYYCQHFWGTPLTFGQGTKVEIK", "quantity": "pKd", "test result": 8.27}

Switching to the query record.
Entry hu7A4.v1 (antibody, V domains shown, IgG) VH: EVQLVQSGAEVKKPGASVKVSCKASGYTFTDYAMHWVRQAPGQGLEWMGGISTYFGRTNYNQKFKGRVTMTRDTSISTAYMELSRLRSDDTAVYYCARGLSGNYVMDYWGQGTTVTVSS VL: DIVMTQSPDSLAVSLGERATINCRASESVDSYGNSFMHWYQQKPGQPPKLLIYRASNLESGVPDRFSGSGSGTDFTLTISSLQAEDVAVYYCQQSNEGPPTFGQGTKLEIK has what pKd?
8.78
